List of binding signal values.
biological target: AGO2 A367P (Homo sapiens, UniProt Q9UKV8 1-859, A367P;S387D;S824A;S828D;S831D;S834A); test: RNA Bind-n-Seq (nitrocellulose filter binding and sequencing); miR-122 guide loaded in AGO2; 60 min incubation; 30 mM Tris pH 8.0, 100 mM potassium acetate, 2 mM magnesium acetate, 0.5 mM TCEP, 0.005% NP-40, 0.01 mg/ml yeast tRNA; 3 nM AGO2-miR-122, 100 nM RNA library; 60; high values mean tight binding; details: protein: recombinant; tags: His6 (N-terminal, pFastBac HTA)
Sequence (Q9UKV8 whole entry A367P/S387D/S824A/S828D/S831D/S834A): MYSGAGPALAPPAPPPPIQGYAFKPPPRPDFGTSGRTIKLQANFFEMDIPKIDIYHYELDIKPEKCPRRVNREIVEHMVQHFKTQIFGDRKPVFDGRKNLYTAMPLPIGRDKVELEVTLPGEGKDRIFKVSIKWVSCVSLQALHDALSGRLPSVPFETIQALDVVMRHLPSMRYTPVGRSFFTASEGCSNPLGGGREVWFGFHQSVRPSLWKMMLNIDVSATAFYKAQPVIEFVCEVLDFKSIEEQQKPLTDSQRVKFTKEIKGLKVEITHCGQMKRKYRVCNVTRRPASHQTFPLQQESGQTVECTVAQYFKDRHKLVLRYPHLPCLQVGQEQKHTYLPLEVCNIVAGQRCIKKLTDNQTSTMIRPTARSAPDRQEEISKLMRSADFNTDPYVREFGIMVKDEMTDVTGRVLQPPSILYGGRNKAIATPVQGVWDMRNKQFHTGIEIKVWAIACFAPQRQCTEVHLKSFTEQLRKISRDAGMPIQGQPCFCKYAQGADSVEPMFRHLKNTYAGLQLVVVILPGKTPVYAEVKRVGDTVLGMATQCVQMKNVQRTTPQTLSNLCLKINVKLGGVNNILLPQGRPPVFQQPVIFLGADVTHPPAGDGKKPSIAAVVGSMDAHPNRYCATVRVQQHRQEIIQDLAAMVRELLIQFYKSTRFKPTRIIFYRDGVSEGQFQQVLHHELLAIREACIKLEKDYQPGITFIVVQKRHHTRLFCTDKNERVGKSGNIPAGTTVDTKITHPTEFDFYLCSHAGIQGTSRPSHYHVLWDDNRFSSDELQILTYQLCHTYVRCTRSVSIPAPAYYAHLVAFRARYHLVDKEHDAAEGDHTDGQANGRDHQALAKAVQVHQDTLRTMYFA

Binder: ATGTTCCG (ssRNA, constant regions annealed to DNA blockers; guide miR-122 5' phosphate) RNA 1: GAGUUCUACAGUCCGACGAUCCCAACAUGUUCCGCACCUGGAAUUCUCGGGUGCCAA RNA 2: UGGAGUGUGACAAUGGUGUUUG DNA 1: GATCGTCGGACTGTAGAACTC DNA 2: TTGGCACCCGAGAATTCCA
Reported value: 0.121 fold enrichment over input

Attention now turns to another entry.
The binder GTGTTTCA (ssRNA, constant regions annealed to DNA blockers; guide miR-122 5' phosphate) RNA 1: GAGUUCUACAGUCCGACGAUCCCAACGUGUUUCACACCUGGAAUUCUCGGGUGCCAA RNA 2: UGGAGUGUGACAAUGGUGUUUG DNA 1: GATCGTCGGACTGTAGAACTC DNA 2: TTGGCACCCGAGAATTCCA showed binding signal equal to 0.178 fold enrichment over input
